System: Echinochloa crus-galli (ECHCG)
Experiment: Pre-emergence herbicidal activity, glasshouse pot test
Type: in vivo
Details: 312 h, Rate 250 g/ha, evaluated after 13 days, 100=total damage to plant, 0=no damage to plant

STRUCTURE_AS_SMILES: CCc1cc(Oc2ccc(Cl)c(F)c2)ccc1C1=C(O)C(C)(C)OC(C)(C)C1=O
pest or weed control at 250 g/ha, %: 60
//
STRUCTURE_AS_SMILES: CCc1cc(Oc2ccc(Cl)cc2)ccc1C1=C(O)C(C)(C)OC(C)(C)C1=O
pest or weed control at 250 g/ha, %: 60
//
STRUCTURE_AS_SMILES: Cc1cc(Oc2cnc3cc(Cl)ccc3n2)cc(C)c1C1=C(O)C(C)(C)OC(C)(C)C1=O
pest or weed control at 250 g/ha, %: 20
//
STRUCTURE_AS_SMILES: CCc1cc(Oc2ccc(Cl)cc2F)ccc1C1=C(O)C(C)(C)OC(C)(C)C1=O
pest or weed control at 250 g/ha, %: 20

----------
Tested on: Lolium perenne (LOLPE)
Assay: Pre-emergence herbicidal activity, glasshouse pot test
Assay type: in vivo
Conditions: 312 h, Rate 250 g/ha, evaluated after 13 days, 100=total damage to plant, 0=no damage to plant
Please use y whenever pest or weed control at 250 g/ha is not below 50%, and n whenever it is.

STRUCTURE_AS_SMILES: CCc1cc(Oc2ncc(C(F)(F)F)cc2Cl)ccc1C1=C(O)C(C)(C)OC(C)(C)C1=O
CLASS_ASSIGNMENT: y
--
STRUCTURE_AS_SMILES: CCc1cc(Oc2ccc(F)cc2)ccc1C1=C(O)C(C)(C)OC(C)(C)C1=O
CLASS_ASSIGNMENT: y
--
STRUCTURE_AS_SMILES: CCc1cc(Oc2ccc(Cl)cc2F)ccc1C1=C(O)C(C)(C)OC(C)(C)C1=O
CLASS_ASSIGNMENT: n
--
STRUCTURE_AS_SMILES: CCc1cc(Oc2ccc(Br)cc2)ccc1C1=C(O)C(C)(C)OC(C)(C)C1=O
CLASS_ASSIGNMENT: n
--
STRUCTURE_AS_SMILES: CCc1cc(Oc2ccc(C(F)(F)F)cn2)ccc1C1=C(O)C(C)(C)OC(C)(C)C1=O
CLASS_ASSIGNMENT: y
--
STRUCTURE_AS_SMILES: CCc1cc(Oc2ccc(Cl)c(F)c2)ccc1C1=C(O)C(C)(C)OC(C)(C)C1=O
CLASS_ASSIGNMENT: y
--
STRUCTURE_AS_SMILES: CCc1cc(Oc2ncc(Cl)cc2F)ccc1C1=C(O)C(C)(C)OC(C)(C)C1=O
CLASS_ASSIGNMENT: y
